This collection of values is drawn from patent US11485708B2.

study-target: human PD-L1 / Human PD-1 (Homo sapiens (Human))
Sequence (Q9NZQ7 19-239): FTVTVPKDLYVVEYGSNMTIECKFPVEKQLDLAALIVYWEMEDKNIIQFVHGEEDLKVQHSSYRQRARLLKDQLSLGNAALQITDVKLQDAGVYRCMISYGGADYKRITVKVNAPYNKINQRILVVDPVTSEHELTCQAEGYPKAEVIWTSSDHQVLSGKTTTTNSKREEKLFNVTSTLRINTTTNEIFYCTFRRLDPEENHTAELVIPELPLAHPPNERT
assay-text: Enzyme-Linked Immunosorbent Assay (ELISA), PD-1/PD-L1 binding
stated-conditions: plates coated with human PD-L1, biotinylated human PD-1 added
Give IC50 for every item shown.

Record COc1cc(-c2cccc(-c3cccc(-c4cc(F)c(CN[C@@H]5CCC[C@@H]5O)c(OC)c4)c3C)c2C)cc(F)c1CN[C@@H]1CCC[C@@H]1O [Compd 1.046] , field IC50: < 1 µM

Record Cc1c(OCCCN2CCC(O)CC2)cccc1-c1cccc(-c2ccc3c(c2)CCNC3)c1C [Compd 1.111] , field IC50: < 1 µM

Record Cc1c(-c2ccc3c(c2)CCNC3)cccc1-c1cccc(-c2ccc3c(c2)CCNC3)c1C [Compd 1.042] , field IC50: < 1 µM

Record COc1cc(-c2cccc(-c3cccc(OCCCN4CCC(F)CC4)c3C)c2C)cc(F)c1CN(C)C [Compd 1.078] , field IC50: < 1 µM

Record COC(=O)CCCN(C)Cc1c(F)cc(-c2cccc(-c3cccc(-c4cc(F)c(CN(C)CCCC(=O)OC)c(OC)c4)c3C)c2C)cc1OC [Compd 1.057] , field IC50: < 1 µM

Record COc1cccc(-c2cccc(-c3ccc4c(c3)CCNC4)c2C)c1 [Compd 1.116] , field IC50: 1 to 10 µM

Record Cc1c(OCCCN2CCC2(C)C)cccc1-c1cccc(-c2ccc3c(c2)CNCCC3)c1C [Compd 1.123] , field IC50: < 1 µM

Record COc1cc(-c2cccc(-c3cccc(-c4cc(F)c(CCN)c(OC)c4)c3C)c2C)cc(F)c1CN [Compd 1.039] , field IC50: < 1 µM

Record Cc1c(OCCCN2[C@H](C)CC[C@H]2C)cccc1-c1cccc(-c2ccc(CNCC(=O)O)cc2)c1C [Compd 1.101] , field IC50: < 1 µM

Record COc1cc(-c2cccc(-c3cccc(-c4cc(F)c(CNCCCC(=O)O)c(OC)c4)c3C)c2C)cc(F)c1CNCCCC(=O)O [Compd 1.063] , field IC50: < 1 µM

Record COc1cc(-c2cccc(-c3cccc(-c4cc(F)c(CN(C)C)c(OC)c4)c3C)c2C)cc(F)c1CN(C)C [Compd 1.059] , field IC50: < 1 µM

Record C=Cc1c(-c2ccc3c(c2)CCNC3)cccc1-c1cccc(OCCCN2CCC2(C)C)c1C [Compd 1.076] , field IC50: < 1 µM

Record COc1cc(-c2cccc(-c3cccc(-c4cc(F)c(CN(C)CCCC(=O)O)c(OC)c4)c3C)c2C)cc(F)c1CN(C)CCCC(=O)O [Compd 1.058] , field IC50: < 1 µM

Record Cc1c(OCCCN2[C@H](C)CC[C@H]2C)cccc1-c1cccc(-c2ccc3c(c2)CCN(CC(=O)O)C3)c1C [Compd 1.108] , field IC50: < 1 µM

Record COc1cc(-c2cccc(-c3cccc(NC4CCNCC4)c3C)c2C)cc(F)c1CN [Compd 1.003] , field IC50: < 1 µM

Record Cc1c(OCCCN2CCC(F)CC2)cccc1-c1cccc(-c2ccc3c(c2)OCCNC3)c1C [Compd 1.080] , field IC50: < 1 µM

Record Cc1ccccc1-c1cccc(-c2ccc3c(c2)CCNC3)c1C [Compd 1.117] , field IC50: 1 to 10 µM

Record Cc1c(OCCCN2[C@H](C)CC[C@H]2C)cccc1-c1cccc(-c2ccc([C@@H](C)N)cc2)c1C [Compd 1.099] , field IC50: < 1 µM

Record Cc1c(OCCCN2CCC(F)CC2)cccc1-c1cccc(-c2ccc(CN)c(F)c2)c1C [Compd 1.086] , field IC50: < 1 µM

Record Cc1c(OCCCN2CCC2(C)C)cccc1-c1cccc(-c2ccc3c(c2)CCNC3)c1C(F)(F)F [Compd 1.085] , field IC50: 1 to 10 µM

Record COc1cc(-c2cccc(-c3cccc(-c4cc(F)c(CN)c(OC)c4)c3C)c2C)ccc1C(=O)O [Compd 1.005] , field IC50: 1 to 10 µM

Record COc1cc(-c2cccc(-c3cccc(-c4cc(F)c(CNCCS(=O)(=O)O)c(OC)c4)c3C)c2C)cc(F)c1CNCCS(=O)(=O)O [Compd 1.041] , field IC50: < 1 µM

Record COc1cc(-c2cccc(-c3cccc(-c4cc(F)c(CCN)c(OC)c4)c3C)c2C)cc(F)c1CCN [Compd 1.045] , field IC50: < 1 µM

Record COc1cc(-c2cccc(-c3cccc4c3CCNC4)c2C)cc(F)c1CN [Compd 1.022] , field IC50: 1 to 10 µM

Record COc1cc(-c2cccc(-c3cccc(OCCCN4[C@H](C)CC[C@H]4C)c3C)c2C)ccc1CNCCCC(=O)O [Compd 1.066] , field IC50: < 1 µM

Record Cc1c(OCCCN2CCC2(C)C)cccc1-c1cccc(-c2ccc3c(c2)CNCC3)c1C [Compd 1.124] , field IC50: < 1 µM

Record COc1cccc(-c2cccc(-c3ccc4c(c3)CCNC4)c2C)c1C [Compd 1.115] , field IC50: 1 to 10 µM

Record Cc1c(OCCCN2CCC(F)CC2)cccc1-c1cccc(-c2ccc(CN(C)C)c(C(F)(F)F)c2)c1C [Compd 1.084] , field IC50: 1 to 10 µM

Record COc1cc(-c2cccc(-c3ccc4c(c3C)CNCC4)c2C)cc(F)c1CNCCO [Compd 1.020] , field IC50: 1 to 10 µM

Record Cc1c(OCCCN2[C@H](C)CC[C@H]2C)cccc1-c1cccc(-c2ccc(C(C)N)cc2)c1C (some centres unmarked) [Compd 1.113] , field IC50: < 1 µM

Record Cc1c(OCCCN2[C@H](C)CC[C@H]2C)cccc1-c1cccc(-c2ccc(CN)cc2)c1C [Compd 1.121] , field IC50: < 1 µM

Record Cc1c(OCCCN2[C@H](C)CC[C@H]2C)cccc1-c1cccc(-c2cc(F)c(CNCCCC(=O)O)c(F)c2)c1C [Compd 1.061] , field IC50: < 1 µM
